System: NCI-H2228
Procedure Text: relative viability (nuclei count vs DMSO), 5 days (fraction); higher = more cells survive
Experimental Parameters: first compound 2 µM
Parameter Measured: relative viability
Just the number.

# relative viability lookup, item COCC1(CO)C(=O)C2CCN1CC2 (stereo not drawn) [PRIMA-1MET] + CCNC(=O)c1noc(-c2cc(C(C)C)c(O)cc2O)c1-c1ccc(CN2CCOCC2)cc1 [Luminespib] (partner 0.01 µM)
0.0997

# relative viability lookup, item COCC1(CO)C(=O)C2CCN1CC2 (stereo not drawn) [PRIMA-1MET] + Nc1nc2[nH]cc(CCc3ccc(C(=O)N[C@@H](CCC(=O)O)C(=O)O)cc3)c2c(=O)[nH]1 [Pemetrexed] (partner 0.2 µM)
0.3

# relative viability lookup, item COCC1(CO)C(=O)C2CCN1CC2 (stereo not drawn) [PRIMA-1MET] + Cc1nc(Nc2ncc(C(=O)Nc3c(C)cccc3Cl)s2)cc(N2CCN(CCO)CC2)n1 [Dasatinib] (partner 0.075 µM)
0.541

====

Test system: HCC-78
Procedure Text: relative viability (nuclei count vs DMSO), 5 days (fraction); higher = more cells survive
Experimental Parameters: first compound 0.2 µM
Parameter Measured: relative viability
Just the number.

Value wanted: relative viability (HCC-78) of entry COCC1(CO)C(=O)C2CCN1CC2 (centres undefined) [PRIMA-1MET] + CC1(C)CCC(c2ccc(Cl)cc2)=C(CN2CCN(c3ccc(C(=O)NS(=O)(=O)c4ccc(N[C@H](CCN5CCOCC5)CSc5ccccc5)c(S(=O)(=O)C(F)(F)F)c4)cc3)CC2)C1 [Navitoclax] (partner 0.5 µM)
0.876

Value wanted: relative viability (HCC-78) of entry COCC1(CO)C(=O)C2CCN1CC2 (centres undefined) [PRIMA-1MET] + O=C(CCCCCCC(=O)Nc1ccccc1)NO [Vorinostat] (partner 1 µM)
0.624

Value wanted: relative viability (HCC-78) of entry COCC1(CO)C(=O)C2CCN1CC2 (centres undefined) [PRIMA-1MET] + CC(=O)Nc1cccc(-n2c(=O)n(C3CC3)c(=O)c3c(Nc4ccc(I)cc4F)n(C)c(=O)c(C)c32)c1 [Trametinib] (partner 0.02 µM)
0.676

Value wanted: relative viability (HCC-78) of entry COCC1(CO)C(=O)C2CCN1CC2 (centres undefined) [PRIMA-1MET] + Cc1nc(Nc2ncc(C(=O)Nc3c(C)cccc3Cl)s2)cc(N2CCN(CCO)CC2)n1 [Dasatinib] (partner 0.075 µM)
0.427

====

System: EPLC-272H
Procedure Text: relative viability (nuclei count vs DMSO), 5 days (fraction); higher = more cells survive
Experimental Parameters: first compound 0.1 µM
Parameter Measured: relative viability
Just the number.

Value wanted: relative viability (EPLC-272H) of entry CCN(CC)CCCCNc1ncc2cc(-c3cc(OC)cc(OC)c3)c(NC(=O)NC(C)(C)C)nc2n1 + Cc1nc(NC(=O)N2CCC[C@H]2C(N)=O)sc1-c1ccnc(C(C)(C)C(F)(F)F)c1 [Alpelisib] (partner 2 µM)
1.01

Value wanted: relative viability (EPLC-272H) of entry O=c1cc(N2CCOCC2)oc2c(-c3cccc4c3sc3ccccc34)cccc12 + O=C(CCCCCCC(=O)Nc1ccccc1)NO [Vorinostat] (partner 1 µM)
0.54

Value wanted: relative viability (EPLC-272H) of entry CCN(CC)CCCCNc1ncc2cc(-c3cc(OC)cc(OC)c3)c(NC(=O)NC(C)(C)C)nc2n1 + CC(C)C[C@H](NC(=O)[C@H](Cc1ccccc1)NC(=O)c1cnccn1)B(O)O [Bortezomib] (partner 0.002 µM)
0.921
